details: in methanol, 303.2 K
measurement kind: solubility (mole fraction)
Output spec: single numeric token, no unit.

INPUT: Item `CC(C)CCC[C@@H](C)[C@H]1CC[C@H]2[C@@H]3CC=C4C[C@@H](O)CC[C@]4(C)[C@H]3CC[C@]12C` has what recorded solubility (mole fraction)?
OUTPUT: 0.00073

* * *

conditions: in methanol, 283.2 K
measurement kind: solubility (mole fraction)
Output spec: single numeric token, no unit.

INPUT: Item `CC(C)CCC[C@@H](C)[C@H]1CC[C@H]2[C@@H]3CC=C4C[C@@H](O)CC[C@]4(C)[C@H]3CC[C@]12C` has what recorded solubility (mole fraction)?
OUTPUT: 0.00021

* * *

settings: in MIBK, 323.2 K
measurement kind: solubility (mole fraction)
Output spec: single numeric token, no unit.

INPUT: Item `CC(C)CCC[C@@H](C)[C@H]1CC[C@H]2[C@@H]3CC=C4C[C@@H](O)CC[C@]4(C)[C@H]3CC[C@]12C` has what recorded solubility (mole fraction)?
OUTPUT: 0.0483

* * *

details: in n-heptane, 323.2 K
measurement kind: solubility (mole fraction)
Output spec: single numeric token, no unit.

INPUT: Item `CC(C)CCC[C@@H](C)[C@H]1CC[C@H]2[C@@H]3CC=C4C[C@@H](O)CC[C@]4(C)[C@H]3CC[C@]12C` has what recorded solubility (mole fraction)?
OUTPUT: 0.0152

* * *

conditions: in ethyl acetate, 293.2 K
measurement kind: solubility (mole fraction)
Output spec: single numeric token, no unit.

INPUT: Item `CC(C)CCC[C@@H](C)[C@H]1CC[C@H]2[C@@H]3CC=C4C[C@@H](O)CC[C@]4(C)[C@H]3CC[C@]12C` has what recorded solubility (mole fraction)?
OUTPUT: 0.00952

* * *

details: in acetic acid, 323.2 K
measurement kind: solubility (mole fraction)
Output spec: single numeric token, no unit.

INPUT: Item `CC(C)CCC[C@@H](C)[C@H]1CC[C@H]2[C@@H]3CC=C4C[C@@H](O)CC[C@]4(C)[C@H]3CC[C@]12C` has what recorded solubility (mole fraction)?
OUTPUT: 0.00382

* * *

details: in MIBK, 303.2 K
measurement kind: solubility (mole fraction)

INPUT: Item `CC(C)CCC[C@@H](C)[C@H]1CC[C@H]2[C@@H]3CC=C4C[C@@H](O)CC[C@]4(C)[C@H]3CC[C@]12C` has what recorded solubility (mole fraction)?
OUTPUT: 0.0272

* * *

conditions: in n-heptane, 303.2 K
measurement kind: solubility (mole fraction)
Output spec: single numeric token, no unit.

INPUT: Item `CC(C)CCC[C@@H](C)[C@H]1CC[C@H]2[C@@H]3CC=C4C[C@@H](O)CC[C@]4(C)[C@H]3CC[C@]12C` has what recorded solubility (mole fraction)?
OUTPUT: 0.00609

* * *

conditions: in MIBK, 283.2 K
measurement kind: solubility (mole fraction)
Output spec: single numeric token, no unit.

INPUT: Item `CC(C)CCC[C@@H](C)[C@H]1CC[C@H]2[C@@H]3CC=C4C[C@@H](O)CC[C@]4(C)[C@H]3CC[C@]12C` has what recorded solubility (mole fraction)?
OUTPUT: 0.0101

* * *

conditions: in MIBK, 313.2 K
measurement kind: solubility (mole fraction)
Output spec: single numeric token, no unit.

INPUT: Item `CC(C)CCC[C@@H](C)[C@H]1CC[C@H]2[C@@H]3CC=C4C[C@@H](O)CC[C@]4(C)[C@H]3CC[C@]12C` has what recorded solubility (mole fraction)?
OUTPUT: 0.036
